measurement-target: Bromodomain-containing protein 1 (Homo sapiens, UniProt O95696)
Sequence (O95696 whole entry): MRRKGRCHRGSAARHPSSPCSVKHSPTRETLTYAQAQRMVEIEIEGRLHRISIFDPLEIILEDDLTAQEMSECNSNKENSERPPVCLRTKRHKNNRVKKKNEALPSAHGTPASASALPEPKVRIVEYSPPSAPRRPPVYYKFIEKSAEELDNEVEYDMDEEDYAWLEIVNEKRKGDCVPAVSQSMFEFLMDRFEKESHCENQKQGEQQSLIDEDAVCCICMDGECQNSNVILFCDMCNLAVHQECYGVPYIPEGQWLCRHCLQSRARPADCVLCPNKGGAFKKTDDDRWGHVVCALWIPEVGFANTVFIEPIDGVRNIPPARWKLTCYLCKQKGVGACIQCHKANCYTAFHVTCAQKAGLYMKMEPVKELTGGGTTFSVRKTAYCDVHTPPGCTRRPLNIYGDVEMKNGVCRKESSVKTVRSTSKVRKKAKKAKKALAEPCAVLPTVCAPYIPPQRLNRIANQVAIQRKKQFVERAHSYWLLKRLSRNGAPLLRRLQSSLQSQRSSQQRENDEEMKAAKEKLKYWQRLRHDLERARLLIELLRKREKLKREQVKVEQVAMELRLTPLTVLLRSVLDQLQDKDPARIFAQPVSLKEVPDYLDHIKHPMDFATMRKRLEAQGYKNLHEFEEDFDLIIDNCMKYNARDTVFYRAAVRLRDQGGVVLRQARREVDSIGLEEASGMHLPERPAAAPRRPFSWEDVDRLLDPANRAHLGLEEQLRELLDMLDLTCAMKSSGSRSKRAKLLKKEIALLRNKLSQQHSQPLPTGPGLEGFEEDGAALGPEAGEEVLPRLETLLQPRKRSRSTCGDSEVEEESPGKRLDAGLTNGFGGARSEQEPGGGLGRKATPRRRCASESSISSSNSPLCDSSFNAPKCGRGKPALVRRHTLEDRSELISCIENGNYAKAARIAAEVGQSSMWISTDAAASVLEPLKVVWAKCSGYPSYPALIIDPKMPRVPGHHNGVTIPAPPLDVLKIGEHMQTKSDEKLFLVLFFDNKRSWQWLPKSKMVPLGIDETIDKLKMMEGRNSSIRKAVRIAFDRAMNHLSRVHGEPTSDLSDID
test-method-notes: Binding affinity to BRPF2 (unknown origin) by BROMOscan panel based assay

input-smiles | Ki (nM)
Cc1cncc(-c2cnc(N[C@@H]3CCN(C)C[C@H]3OCC3CCS(=O)(=O)CC3)c3[nH]c(=O)c(C)cc23)c1 | 398

====

Items are presented alongside their recorded pKd.
measurement-target: Bromodomain-containing protein 7 (Homo sapiens, UniProt Q9NPI1)
Sequence (Q9NPI1 whole entry): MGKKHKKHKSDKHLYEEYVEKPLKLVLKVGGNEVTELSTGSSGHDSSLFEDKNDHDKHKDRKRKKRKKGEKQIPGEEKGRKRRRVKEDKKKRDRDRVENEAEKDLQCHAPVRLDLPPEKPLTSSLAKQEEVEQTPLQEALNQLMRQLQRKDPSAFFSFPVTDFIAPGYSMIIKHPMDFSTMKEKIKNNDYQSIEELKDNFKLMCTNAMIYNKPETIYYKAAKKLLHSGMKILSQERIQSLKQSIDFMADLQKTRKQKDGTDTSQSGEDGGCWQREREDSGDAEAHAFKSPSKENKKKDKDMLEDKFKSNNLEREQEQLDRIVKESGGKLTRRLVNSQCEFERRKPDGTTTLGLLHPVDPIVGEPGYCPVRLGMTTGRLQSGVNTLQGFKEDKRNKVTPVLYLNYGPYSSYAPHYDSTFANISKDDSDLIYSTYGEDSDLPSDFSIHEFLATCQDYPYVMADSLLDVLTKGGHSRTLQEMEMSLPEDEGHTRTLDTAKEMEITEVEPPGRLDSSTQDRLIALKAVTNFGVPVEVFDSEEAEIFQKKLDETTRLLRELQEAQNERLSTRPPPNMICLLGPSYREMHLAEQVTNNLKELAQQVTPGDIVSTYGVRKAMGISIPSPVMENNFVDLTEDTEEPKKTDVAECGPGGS
test-method-notes: Binding affinity to BRD7 in human HUT78 cells incubated for 45 mins by mass spectrometry based bromosphere chemoproteomic assay
pKd: −log10 of the molar value.

input-smiles | measurement-target | pKd
Cc1cncc(-c2cnc(N[C@@H]3CCN(C)C[C@H]3OCC3CCS(=O)(=O)CC3)c3[nH]c(=O)c(C)cc23)c1 | Bromodomain-containing protein 7 (Homo sapiens, UniProt Q9NPI1) | 4.50
Cc1cncc(-c2ccc(N[C@@H]3CCNC[C@H]3OCC3CCS(=O)(=O)CC3)c3[nH]c(=O)c(C)cc23)c1 | Bromodomain-containing protein 7 (Homo sapiens, UniProt Q9NPI1) | 5.50

====

Quick reference: pIC50 of the listed items.
measurement-target: Bromodomain testis-specific protein (Homo sapiens, UniProt Q58F21)
test-method-notes: Binding affinity to BRDt containing BD2 bromodomains (unknown origin) by TR-FRET assay
pIC50: −log10 of the molar value.

input-smiles | pIC50
Cc1cncc(-c2cnc(N[C@@H]3CCNC[C@H]3OCC3CCS(=O)(=O)CC3)c3[nH]c(=O)c(C)cc23)c1 | < 4.30
Cc1cncc(-c2cnc(N[C@@H]3CCN(C)C[C@H]3OCC3CCS(=O)(=O)CC3)c3[nH]c(=O)c(C)cc23)c1 | < 4.30

====

// endpoint log10(IC50) / system ATPase family AAA domain-containing protein 2 (Homo sapiens)
test-readout: log10(IC50) (log10 of the value in nM)

compound | log10(IC50)
Cc1cc2c(-c3cncnc3)cnc(N[C@@H]3CCNC[C@H]3OCC3CCOCC3)c2[nH]c1=O | 3.00
Cc1cncc(-c2cnc(N[C@@H]3CCNC[C@H]3OC[C@H]3C[C@@H](C)S(=O)(=O)[C@@H](C)C3)c3[nH]c(=O)c(C)cc23)c1 | 2.00
CO[C@@H]1CNCC[C@H]1Nc1nccc2cc(C)c(=O)[nH]c12 | 4.00
CC(=O)N1CCC(CO[C@@H]2CNCC[C@H]2Nc2nccc3cc(C)c(=O)[nH]c23)CC1 (racemic) | 3.90
COc1cncc(-c2cnc(N[C@@H]3CCNC[C@H]3OCC3CCS(=O)(=O)CC3)c3[nH]c(=O)c(C)cc23)c1 | 2.10
Cc1cc2c(-c3cccnc3)cnc(N[C@@H]3CCNC[C@H]3OCC3CCS(=O)(=O)CC3)c2[nH]c1=O | 2.10
Cc1cc2ccnc(N[C@@H]3CCNC[C@H]3OCC3CCCCCC3)c2[nH]c1=O (racemic) | 3.30
COc1cncc(-c2cnc(N[C@@H]3CCNC[C@H]3OCC3CCOCC3)c3[nH]c(=O)c(C)cc23)c1 | 2.40
